Each entry below carries its reported apparent KD of MS2 coat protein.
- Tested on: MS2 coat protein
- Experiment Description: apparent KD of MS2 coat protein; designed switch direction (-1 OFF switch, 1 ON switch): -1; higher = weaker reporter binding
- Applied Conditions: input ligand: FMN 200 uM

{"columns": ["Seq", "Unit Info", "apparent KD of MS2 coat protein"],
 "data": [
  ["GUUUCACAUGAGGAUCACCCAUGUGAGGAUAUGGAUUCGCUGGCCGUAGCCAGUGGAUCCAGAAGGCGCGUGAU [JL-ex1-4.21] (Eterna round: R97, puzzle: Exclusion 1)", "nM", 60.5],
  ["AAAGUACAUGAGGAUCACCCAUGUCAGGAUAUUGCCACAAGGCCCGGAGCCCAGAGCGCGAGAAGGGACAUUAG [Eternabot (Original) Solution 12] (Eterna round: R97, puzzle: Exclusion 1)", "nM", 55.4],
  ["GAUCAUGCAGGAUAUACAUGGACCAUGAAAACAUGGUUUUCACAUGAGGAUCACCCAUGUAGAAGGGCAUGAUC [Omei Ex2 A8] (Eterna round: R97, puzzle: Exclusion 2)", "nM", 275],
  ["UAUUAGCAAGCAAGAUCCCACAUGAGGAUCACCCAUGUGCUCGUCGCAUCCAGAAUUACUGGGUGCGCUCGUCUUAU [Winner reversed engineered 16] (Eterna round: R97, puzzle: Sensor, turn-off variant 1)", "nM", 168],
  ["CAGUACUGAGGAUAUACAUGAGGAUCACCCAUGUGUUCCAGCUAGGAGACUAGCAAGUGUAGAAGGCAGUACUG [jl-ex3-4.01 salish99 mod] (Eterna round: R97, puzzle: Exclusion 3)", "nM", 293]
]}

###

- Test system: MS2 coat protein
- Experiment Description: apparent KD of MS2 coat protein; designed switch direction (-1 OFF switch, 1 ON switch): -1; higher = weaker reporter binding
- Applied Conditions: input ligand: microRNA oligo, concentration not stated
Assay Metric: apparent KD of MS2 coat protein (nM)

{"columns": ["Seq", "Measurement Target", "Unit Info", "Reported Measurement"],
 "data": [
  ["AGUAGUUGUUUCCGUUCUUACAUGAGGAUCACCCAUGUUUCUUGUCGUGCUCGCGUUGCUCGUCAGACUUCCUGUUG [salish99_TOv1_r3_063] (Eterna round: R96, puzzle: Sensor v3, turn-off variant 1)", "MS2 coat protein", "nM", 49.5],
  ["UAGGUGUAGUUAGGAUAUCGUUGCGAUUAGCUACGAGAAGGAACACAUGAGGAUCACCCAUGUCUACUCAAGAAACGAAAGGAA [6th something] (Eterna round: R96, puzzle: Exclusion NG 1)", "MS2 coat protein", "nM", 22.1],
  ["UACAUGAGGAUCACCCAUGUUUUGUCGUGUAUGGUACCCAUCUAGGAUAUCGUGUUAUUUAACCACGAGAAGGAGAGUAUCAAU [MOD4 Solution 21 by JMF] (Eterna round: R96, puzzle: Exclusion NG 3)", "MS2 coat protein", "nM", 13],
  ["UGUUGUCGCGUAGGAUAUGCAUGAGGAUCACCCAUGCAAUUAGAGUUAACAUGAGGAUCACCCAUGUAGAAGGACGGGACAACU [pwkr exNG2 2xF5 1xFMN.6] (Eterna round: R96, puzzle: Exclusion NG 2)", "MS2 coat protein", "nM", 34.6],
  ["UAUAUAUAGUAAGGAUAUGUAAUAAUUUUAUAAACAGAAGGUACUGACAUGAGGAUCACCCAUGUUUUAGUGUGGGCAUGUAGA [JMF's solution 30] (Eterna round: R96, puzzle: Exclusion NG 1)", "MS2 coat protein", "nM", 73.2],
  ["UUACGGCGGAGAGGAUAUCCGAAAGGAAGUGUAGGAGAAGGCUCCAGUUGUACAUGAGGAUCACCCAUGUGAUCCUUUCCGAAA [PowerStrip EXNG 1.25] (Eterna round: R96, puzzle: Exclusion NG 1)", "MS2 coat protein", "nM", 79.7],
  ["AAUGAUUGACGAGGAUAUUGUGUUAGAUCACGACGAGAAGGCGUCUGUCACAUGAGGAUCACCCAUGUGAGCCUUGUGGAUAGA [Ex NG1 #77] (Eterna round: R96, puzzle: Exclusion NG 1)", "MS2 coat protein", "nM", 399],
  ["GAUUGACAUGAGGAUCACCCAUGUGAGGAUAUCGGCUGGACCGUGUUGGCUUCCGUCUCGAGAAGGCGCAUAGG [Exclusion 1 V43] (Eterna round: R96, puzzle: Exclusion 1)", "MS2 coat protein", "nM", 23.9],
  ["UGUUGGUACGUAGGAUAUCCACCAACAGGUGGAAGGAUAUGGAAACAGAAGGUUCGCCAACAGGCGGAGAAGGACGUGGUAACU [pwkr exNG2 2xF7 2xFMN.24] (Eterna round: R96, puzzle: Exclusion NG 2)", "MS2 coat protein", "nM", 212]
]}

###

- System: K4 kissing-loop RNA reporter
- Experiment Description: apparent KD of K4 kissing-loop reporter; higher = weaker reporter binding
- Applied Conditions: Eterna round: R107; input ligand: arginine 13.2 mM
Each entry below carries its reported apparent KD of K4 kissing-loop reporter.

{"columns": ["Seq", "apparent KD of K4 kissing-loop reporter"],
 "data": [
  ["AUUUUUUUGUCAGGAUAUUAGUAUGGUUUUGGUUUGUUAGUGAUGUUGAUAUUUUGUUUAUGUAUUUAAGAAGGGAUUUAGCGGU [gyhhgumullin]", "290 nM"],
  ["GCUAAGGAGUGAUGUUCCAAGUGAUGUUAACGAGGACCGGUACGGCCGCCACUCGAUACGGCCGGAAAGUAAGAUAAACUACAGC [Same State - Tryptophan A (Freestyle 5)]", "72.6 nM"],
  ["AGGGUUAAUUAGUCUUUUUUCACAUUAAGUCAGGAUAUCGUAUUUUCGAGAAGGGACACAUGCUAGUGAUGUUAGCUAUUUCCCA [#02 K4 FMN A Exclusion]", "115 nM"]
]}

###

- Test system: K4 kissing-loop RNA reporter;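 note: bound reporter read as fluorescence of individual clusters on recovered sequencing chips by microscopy, with normalized cluster intensities fitted with a binding model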
- Experiment Description: apparent KD of K4 kissing-loop reporter; higher = weaker reporter binding
- Applied Conditions: Eterna round: R107; input ligand: tryptophan 2.4 mM
Each entry below carries its reported apparent KD of K4 kissing-loop reporter.
Assay Metric: apparent KD of K4 kissing-loop reporter (nM)

{"columns": ["Seq", "Reported Measurement"],
 "data": [
  ["UGUGAGCUGUCGACAAAAGUCGACUAAAGCGAGGAUAUGACGAAAGUCAGAAGGCGUCAAUAAUGGAGUGAUGUUCCUGCUCACU [FmnA 9 G29]", 406],
  ["UACUAACGUUAAGGAUAUGCGUCGAUUACCGGUAAGUGAUGUUUAGCGCCCGGGCAACGGUGGGUCGCAGAAGGUAAACACAGUU [theeternabot_sameState_KL_FMN_B_19]", 610],
  ["AGUGAUAUAUGAGGAUAUGGGUUUGUUAAUGAGUUUGUUUUAGUGUUGUUUGGUUAGUGAUGUUAUUUAGAAGGCGUGAGUGAUG [vxxexmullin]", 72],
  ["AAUAAUAGUUGAGCAGGCGUGGUCUGAGAUACCAGUGAUUUCGAUCACCCUUGGCAGCUCAGCAUGAGUGAUGUUCAUGCUAUUC [Theo A Ex t10]", 131],
  ["UGUGUUGUUUUGAUGUUUGGUGUUUGUUGGCAGGAUAUCGUAGAGGCGAGAAGGGCUUUGUUGCGGUAUGAGUGAUGUUUGUAGG [szzrmullin]", 255],
  ["AAACAUCACUGGGAGUGAUGUUCUCAGUGACGAGGACCGGUACGGCCGCCACUCGCGAGAGAUAUAAAUAAGUAAUGACAUCAUU [Excl Tryptophan A V1]", 423],
  ["CAAAUAUGCGGUAGGUUCAAGCGCUGGGAAGGAGCGCAGAUGACUGCAGGUAGGUCGCCCAGUGAUGUUGGGCUUUCCACCUAUG [Esisusa]", 100],
  ["AGACCACAAAGUGGUCAGUGUUCGCUCCGGCGAGGACCGGUACGGCCGCCACUCGCGAGUGAUGUUCGCGAGUGGAGCGAACACA [Omei KL Tryp A Exc A v1]", 86.3],
  ["UAAUAAAUUCCAGCGAUGUCACUCUUCGAAGGAGCGGACGAAAGUCCAGGUAGGUCGCGAAGAGUGAUGUUCUUCGCGGCGCUGG [Omei KL Arginine A Exc A v3]", 174],
  ["AAAUACAUUUUAUUAUAUAACUUUUCAGAAGGAGCGUGGAAGUUCACAGGUAGGUCGCUGAAUAUUGGACUAGUGAUGUUAGUUA [JR_Nu_SSArginiA_Sub021]", 179],
  ["ACCUACCAUUAGUGAUGUUAAUGGACGGAAGGAGCGCGGAUAUCUGCAGGUAGGUCGCCGAAGGCUAGACAUUGUCUAGCCAUUA [AK1 SS Arginine A]", 120],
  ["GAAUGGAGUGAUGUUCCAUUAACGAUCCUACGAGGACCGGUACGGCCGCCACUCGUAUUGCAGUGAUGUUGCAACCAGCCGUACU [Exclusion Tryptophan A GF 9]", 102],
  ["AAGUGAUGUUGUAGUGAUGUUGUGAUGUUGCAGGAUAUAUAGUGAUGUAGAAGGGUAUGUGCAGUGUUGUUGUUUGAGUGUUGAU [twwumullin]", 68.7],
  ["ACGCUAGCUACCGAAAGGUAGCUAGCGAGUGAGGAUAUGUGGAAACACAGAAGGCACAGCACAGUGAUGUUGUGCGGCGAAAGCC", 729],
  ["AGAGUUAUAUGAGGAUAUGGGAUAGUAACUGAGUGAGUUAUAGUGUAGUUUGUUUAGUGAUGUUAUUUAGAAGGCGUGAGUGAUG [wwwsemullin]", 107],
  ["CCAUCGCUAUUCGAUACCAGCCAGGAGGUCUUUGGCCUCCUAUUGGAGUGAUGUUCCAUAGGCCCUUGGCAGCGAAUAGUGAUGG [Theophylline B K4 16]", 374],
  ["AAUACUAUCAGAAGGAGCGUGGAAUAUUCAUCUGUAUCUAAUACGAGUGAUGUUCGUAAUUCACAGGUAGGUCGCUGAUCAAUAA [whbob_Ex_Arginine_B_2th156]", 213],
  ["UUGUUUAACUGAAGGAGCGGCAAUUGAUACGUAGAUAUAGUGAUGUUAUAUAAGAUAGAGAGCCAGGUAGGUCGCAGAGGUGUUU [ExArgB.R]", 190],
  ["UUUGGUUUCUCGGCCGCCACUCGUUGUCUAUCGGCUUCAGGGAUAUAGUGAUGUUAUGUAUAGAAGAGGACCGGGAGAAGGUUUU [ExTryptoB.Dw]", 398],
  ["CGAGUGAUGUUCGUUUUUUACUCUUUUUGACAGGAUAUGCGGAAACGCAGAAGGGUCACCUUUGAGUUAAAAGGAGUUAUUUUUU [Ex FMN A 19]", 317],
  ["CCCUCACGAGUGAUGUUCGUAGGGUACAGUCAGGAUAUCAUGCGGUUGAGAAGGGACAGAGAAGGCGGCGACGGGUUGCUUAUCU [Atenus]", 218],
  ["UUAUAUAAGGGAAGGAGCGCGUGGGCGCAGUGAUGUUGCGCCCGACAUCACUUCAACUUAACGCAGGUAGGUCGCCCUUUUAAUA [Arginine B (Excl) V4]", 209],
  ["AAUAUAGUGAUGUUAUAUAAGAAGGAGUUACGAGGACCGGUACGGCCGCCACUCGAAACGAGUGAGGGCUUGGGAGAUUGGGCCC [SSTryptA.I]", 264],
  ["UGCACGGGCUCGGCCGCCACUCCCGCGGGUCGAAAGGUCCGCUACUGAGUGAUGUUCGGUUGGAGGAGGACCGGGAGCCCGUGCA [#2 Exclusion - Tryptophan B Attempt #24 (HarryS)]", 69.2]
]}

These measurements were taken from the supplement of paper PMC9170038.
